# targetDesc: CyclinE1/CDK2 (Homo sapiens)
# Construct: purchased Eurofins, discovery 14-475
# assayInfo: Fluorescence Polarization (FP) competitive binding assay, Cyclin E1/Cdk2;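 also: readings taken after two-hour equilibration at room temperature in HEPES buffer with NaCl, DTT, NP-40 and BSA, IC50 fitted from eight-concentration serial dilution series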
# conditionInfo: 10 nM Cyclin E1/Cdk2, 2 nM FAM probe; average of 2-3 independent experiments; read-out: Cyclin E FP IC50
*1 amine or outer side, *2 acyl side, *3 side chain or, on linkers, in order; H or OH if unused. Where a SMILES comes first, the peptide text is derived from it. Bridges are numbered along the chain shown (N, C = ends). [ ]: non-standard residue; d: D form. The star is where a group is joined. NMePhe(2-(4-MorPh),5-Cl) = CN[C@@H](Cc1cc(Cl)ccc1-c1ccc(N2CCOCC2)cc1)C(=O)O; NMehhhLys(Me) = CN([C@@H](CCCCCCCN(C)[*:3])C(=O)[*:2])[*:1]; X176 = CN([C@@H](Cc1cc(F)ccc1-c1cccnc1)C(=O)[*:2])[*:1]; cBuCO(3,3-F2-1-CF3) = O=C(C1(C(F)(F)F)CC(F)(F)C1)*; Pro(trans-4-F) = O=C(O)[C@@H]1C[C@@H](F)CN1; Gly(cPr) = N[C@H](C(=O)O)C1CC1
Entries and their measured pIC50 follow.
Scale note: pIC50 = -log10(concentration in M).

Here is how some compounds turned out for pIC50.
compound	pIC50
CC(C)C[C@@H]1NC(=O)[C@@H](N(C)C(=O)[C@@H](NC(=O)[C@@H]2C[C@@H](F)CN2C(=O)C2(C(F)(F)F)CC(F)(F)C2)C2CC2)CC=CCCCCNC(=O)[C@H](Cc2cc(Cl)ccc2Cl)N(C)C1=O (single isomer, unassigned) [Example 6-P1]	6.30
CC(C)C[C@@H]1NC(=O)[C@@H](N(C)C(=O)[C@H](CCC(=O)O)NC(=O)[C@@H]2C[C@@H](F)CN2C(=O)C2(C(F)(F)F)CC(F)(F)C2)CCCCCCCN(C)C(=O)[C@H](Cc2cc(Cl)ccc2-c2ccc(N3CCOCC3)cc2)N(C)C1=O [Example 418] ({cBuCO(3,3-F2-1-CF3)}-[Pro(trans-4-F)]E[NMehhhLys(Me)]L[NMePhe(2-(4-MorPh),5-Cl)]; lactam 3-C)	5.28

Challenge: Fill in the blank: the reported pIC50 of CC(C)C[C@@H]1NC(=O)[C@@H](N(C)C(=O)[C@@H](NC(=O)[C@@H]2C[C@@H](F)CN2C(=O)C2(C(F)(F)F)CC(F)(F)C2)C2CC2)CCCCCCCN(C)C(=O)[C@H](Cc2cc(F)ccc2-c2cccnc2)N(C)C1=O [Example 271] ({cBuCO(3,3-F2-1-CF3)}-[Pro(trans-4-F)][Gly(cPr)][NMehhhLys(Me)]L[X176]; lactam 3-C) is ____.
Response given: 6.62
